The measured values listed here are drawn from ChEMBL document CHEMBL1909294.

The compounds below have reported HepSE_bilirubinemia for Hepatotoxicity.

- CC(=O)Nc1nnc(S(N)(=O)=O)s1 [ACETAZOLAMIDE]: 0
- O=C(OOC(=O)c1ccccc1)c1ccccc1 [BENZOYL PEROXIDE]: 0
- COc1cccc2c1C(=O)c1c(O)c3c(c(O)c1C2=O)C[C@@](O)(C(=O)CO)C[C@@H]3O[C@H]1C[C@H](N)[C@H](O)[C@H](C)O1: 1
- CN1C[C@H](C(=O)N[C@]2(C)O[C@@]3(O)[C@@H]4CCCN4C(=O)[C@H](Cc4ccccc4)N3C2=O)C=C2c3cccc4[nH]cc(c34)C[C@H]21: 0
- CC(C)NCC(O)c1cc(O)cc(O)c1 (centres undefined): 0

Query: HepSE_bilirubinemia; subject: O=C1CCc2ccc(OCCCCN3CCN(c4cccc(Cl)c4Cl)CC3)cc2N1
1

Also, [Cl-].[Na+] [SODIUM CHLORIDE] please.
0
